// each record: one item and its pIC50 for MMP-10 (Homo sapiens)
pIC50: −log10 of the molar value.
MEASURED PARAMETER: pIC50

[[record]]
compound = "Cc1ccc2nnn(C[C@H]3CC[C@@H](C(=O)c4ccc(OCc5cccc(Cl)c5)cc4)[C@@H]3C(=O)O)c(=O)c2c1 (single isomer, unassigned) [Example 104]"
measured_parameter = "pIC50"
measured = 7.30

[[record]]
compound = "CCCCCSc1ccc(C(=O)[C@H]2CC[C@@H](Cn3nnc4ccc(C(F)(F)F)cc4c3=O)[C@@H]2C(=O)O)cc1 (racemic) [Example 88]"
measured_parameter = "pIC50"
measured = 7.66

[[record]]
compound = "O=C(O)[C@H]1[C@H](Cn2nnc3ccc(C(F)(F)F)cc3c2=O)CC[C@@H]1C(=O)c1ccc(SCc2ccc(Cl)c(Cl)c2)cc1 (racemic) [Example 79]"
measured_parameter = "pIC50"
measured = 6.51


---

# TEST SYSTEM: MMP-13 (Homo sapiens)
pIC50: −log10 of the molar value.
Consider the following molecules and their measured pIC50 readings.
MEASURED PARAMETER: pIC50

[[record]]
molecule = "Cc1ccc2nnn(C[C@@H]3CC[C@H](C(=O)c4ccc(OCc5cccc(Cl)c5)cc4)[C@H]3C(=O)O)c(=O)c2c1 (racemic) [Example 103]"
measured = 6.60

[[record]]
molecule = "COc1cccc(COc2ccc(C(=O)[C@H]3CC[C@@H](Cn4nnc5ccc(C)cc5c4=O)[C@@H]3C(=O)O)cc2)c1 (racemic) [Example 106]"
measured = 6.92

[[record]]
molecule = "O=C(O)[C@H]1[C@H](Cn2nnc3ccc(C(F)(F)F)cc3c2=O)CC[C@@H]1C(=O)c1ccc(OCc2ccccc2)cc1 (racemic) [Example 11]"
measured = 7.06

[[record]]
molecule = "O=C(O)[C@H]1[C@H](Cn2nnc3ccccc3c2=O)CC[C@@H]1C(=O)c1ccc(OCc2ccc(Cl)c(Cl)c2)cc1 (racemic) [Example 3]"
measured = 6.47

[[record]]
molecule = "Cc1ccc2nnn(C[C@H]3CC[C@@H](C(=O)c4ccc(OCc5ccccc5)cc4)[C@@H]3C(=O)O)c(=O)c2c1 (single isomer, unassigned) [Example 92]"
measured = 7.57

[[record]]
molecule = "O=C(O)[C@@H]1[C@@H](Cn2nnc3ccc(C(F)(F)F)cc3c2=O)CC[C@H]1C(=O)c1ccc(OCC2CCCC2)cc1 (single isomer, unassigned) [Example 44]"
measured = 7.24


---

// each record: one item and its pIC50 for MMP-3 (Homo sapiens)
pIC50: −log10 of the molar value.
MEASURED PARAMETER: pIC50

[[record]]
compound = "Cc1ccc2nnn(C[C@H]3CC[C@@H](C(=O)c4ccc(OCc5cccc(Cl)c5)cc4)[C@@H]3C(=O)O)c(=O)c2c1 (single isomer, unassigned)"
measured_parameter = "pIC50"
measured = 6.59

[[record]]
compound = "Cc1ccc2nnn(C[C@@H]3CC[C@H](C(=O)c4ccc(OCc5ccccc5)cc4)[C@H]3C(=O)O)c(=O)c2c1 (racemic)"
measured_parameter = "pIC50"
measured = 6.72

[[record]]
compound = "O=C(O)[C@@H]1[C@@H](Cn2nnc3ccc(C(F)(F)F)cc3c2=O)CC[C@H]1C(=O)c1ccc(OCC2CCCCC2)cc1 (single isomer, unassigned)"
measured_parameter = "pIC50"
measured = 7.39

